# method: yeast display, Sf9 membrane polyspecificity reagent, FACS + sequencing; frameworks hold sequencing errors
outcomeMeasure: polyreactivity (PSR sort gate)

- constructSequence: "HVQLVESGGGLVHAGGSLRLSCAASGAIFWVNAMGWYREAPGKERELVADISRSGANTYYADSVKGRFTISRDNAKNTVYLQMTSLNPEDTAVYYCAKGVFYPWWYVQPEHDYWGQGTQVTVSS"
  assayValue: "high polyreactivity"
- constructSequence: "QVQLVESGGGLVQAGGSLRLSCAASGSTFRGYAMGWSRQAPGKERELVATITSGGSTKFADSVKGRVTISRDNAKNTVYLQMNSLKPEDTAVYYFNAGPRSWSPYRHWVDFWGQGTQVTVSS"
  assayValue: "low polyreactivity"
- constructSequence: "QVQLVESGGGLVQAGGSLRLSCAASGRTFYANAMVWYRQAPGKERELVAGISYSGGNTYYADSVKGRFTISRDNAKNTVYIQMNSLKPEDTAVYYCAAATVWEYWTYEDWGQGTQVTVSS"
  assayValue: "low polyreactivity"
- constructSequence: "QVQLVESGGGLVQAGGRLRLSCAASGFTFVRNTMGWYRQAPGKDRELVAAISRSGGSTYYADSVKGRFTISRDNAKNTVYLQMNSLKPEDTAVYYCNAYRYLHYDWGQGTQVTVSS"
  assayValue: "high polyreactivity"
- constructSequence: "QVQLVESGGGLVQAGGSLRLSCAASGLIFFYYPMGWYRQAPGKEWEMVAAIRTNYADSVKGRFTISRDNAKNTVDLQMYSLKREDTADYYCAAESSQTPTSAFDYWGQGTQVTVSS"
  assayValue: "low polyreactivity"
- constructSequence: "QVQLVESRWRFVQAGGSLRLSCAASGSIFADYAMGWYRQATGKERELVAAITFSGGSTYYADSVKGRFTISRDNENNTVYLQMNSLKPEDTAVYYCAARWRYRYYSWGQGTQVTVSS"
  assayValue: "high polyreactivity"

====

# method: yeast display, Sf9 membrane polyspecificity reagent, FACS + sequencing; frameworks hold sequencing errors

- constructSequence: "QVQLVESGGGLVQAGGSLRLSCAASGSTFYVYAMGWYRQAPGKERELVAAITRGGSTYYADSVKGRFTISRDNAKNTVYLQMNSLKPEDTAVYYCAKYLSGAADLVPEYDYWGQGTQVTVSS"
  polyreactivity (PSR sort gate): "low polyreactivity"
- constructSequence: "QVQLVESGGGLVQAGGSLRLSCAASGFTLYRYAMGWYRQAPAKERELVAANNSRGGSTYYADSVKGRFTISRDNAKITVYLQMISLKPDDTAVYYCNARRIRGGVRLTSPFYYWGQGTHVTVSS"
  polyreactivity (PSR sort gate): "high polyreactivity"
- constructSequence: "QVQLVESGGGLVQAGGSLRLSCAASGGTFARNALGWYRQAPGKERELVAAIRGGVSTNYADSVKGRFTISRDNAKNTVYLQMNSLKPEDTAVYYCNASPPTLEGYWGQGTQVTVSS"
  polyreactivity (PSR sort gate): "low polyreactivity"
- constructSequence: "QDQLVDSGGGLVQAGGSLRLSCAASGLSFDLYDMGWYRQAPGKERELVAAIDWSATRTYYADSVKGRFTISRDNAKNTVYLQMNSLKPEDPAVYYCNAEAVYEYWIYDYWGQGTQVTLSS"
  polyreactivity (PSR sort gate): "high polyreactivity"
- constructSequence: "QVQLVESGGGLVQAGGSLRLSCAASGSIISYYAMGWYRQAPGKERELVAAISWSGGSTYYADSVKGRFTISRDNAKNTVYLQMNSLKPEDTAVYYCNTVRRLKRYSSYGHDYWGQGTQVTVSS"
  polyreactivity (PSR sort gate): "high polyreactivity"

====

# method: yeast display, Sf9 membrane polyspecificity reagent, FACS + sequencing; frameworks hold sequencing errors
outcomeMeasure: polyreactivity (PSR sort gate)

- constructSequence: "QVQLVESGGGLVQAGGSLRLSCAASGRNFRGNTMGWYRQAPGKERELVAAITRGGSTSYADSVKGRFTISRDNAKNTVILQMNSLKPEDTAVYYCATRTHGEGTRRVSWGQGTQVTVSS"
  assayValue: "low polyreactivity"
- constructSequence: "QVQLLESGGGLVQAGGSLRLSCAASGRIFVYNVMGWSRQAPGKERELVADINGSGGGTIFADSVKGRFTISRDNAKNNVYFQMNSLKPVDTAVYYCNADSYEYHVPYYDYRYDYWGHGTQVTVSS"
  assayValue: "low polyreactivity"
- constructSequence: "QVQLVESGGGLVQAGGSLRLSCAASGFTFSLYAMGWYRQAPGKERELVASISSRGGSTYYADSVKGRFTISRDNAKNTVYLQMNSLKPEDTAVYYCNAGSVTRAWWGYWPFNYWGQGTQVTVSS"
  assayValue: "low polyreactivity"
- constructSequence: "QVQLVESGGGLVQAGGSLRLSCAASGSIFTQNAMGWYRQAPGKERELVAGISDGDSTNYADSVKGRFTISRDNAKNTVYLQMNSLKPEDTAVYYCNAQGTTETSGGGFFRGMDYWGQGTQVTVSS"
  assayValue: "low polyreactivity"
- constructSequence: "QVQLVESGGGLVQAGGSLRLSCAASGRIFYVYAMGWYRQAPGKERELVAAITWRGGTTYYADSVKGRFTISRDNAKNTVYLQMNSLKPEDTAVYYCNAKYFRSYYSIEYDYWGQGTQVTVSS"
  assayValue: "low polyreactivity"
- constructSequence: "QVQLVESGGGLVQAGGSLRLSCAASGSTFYWYAMGWYRQAPGKERELVASITRSGVRTYYADSVKGRFTISRDNAKNTVYLQMNSLKPEDTAVYYCAAERYYFPRSYRYGYWGQGTQVTVSS"
  assayValue: "low polyreactivity"
- constructSequence: "QVQLVESGGGLVQAGGSLRLSCAASGRIFRGYAMGWYRQAPGKERELVAAISNGGGTNYADTVKGRFTISRDNAKNTVYLQMNSLKPEDTAVYYCATGFLQNYYKYTSSFRFYYWGQGTQVTVSS"
  assayValue: "high polyreactivity"
- constructSequence: "QVQLVESGGGLVQAGGSLRLSCAASGRIFGDYAMGWYRQAPGKERELVADITWSGGSTYYADSVKGRFTISRDNAKNTVYLQMNSLKPEDTAVYYCNADVWFYYTFDYWGQGTQVTVSS"
  assayValue: "low polyreactivity"
- constructSequence: "QVQLVESGGGLVQAGGSLRLSCAASGRTFQGYTMGWYRQAPGKERELVAAITGGVGSTYYADSVKGRFTISRDNAKNTVYLQMNSLKPEDTAVYYCNTVSYGYTDLYIFYTGYYYWGQGTQVTVSS"
  assayValue: "low polyreactivity"
- constructSequence: "QVQLVESGGGLVQAGGSLRLSCAASGRTFQYYAMGWYRQAPGKERELVAAITSGGSTYYADSVKGRFTISRDNAKNTVYLQMNSLKPEDTAVYYCAATFYYSGHDDYWGQGTQVTVSS"
  assayValue: "low polyreactivity"
- constructSequence: "QVQLVESGGGLVQAGGSLRLSCAASGSIFYVNGMGWYRQAPGKERELVARITLSGTSTYYADSVKGRFTISRDNAKNTVYLQRNSLKPEDPAVYYCAAPYFTYGQDEDEYWGQGTQGTVSS"
  assayValue: "low polyreactivity"
- constructSequence: "QVQLVESGGGLVQAGGSLRLSCAASGNIFAFYAMGWYRQAPGKERELVADISWSGASTYYADSVKGRFTISRDNAKNTVYLQMNSLKPEDTAVYYCAAYATYYVIFYGDEYWGQGTQVTVSS"
  assayValue: "high polyreactivity"
- constructSequence: "QVQLVESGGGLVQAGGSLRLSCAASGIIFYLNAMGWYRQAPGKERELVAAISNGTSTNYADSVKGRFTISRDNAKNTVYLQMNSLKPEDTAVFYCAADDLRYNSRSSNYRGDYWGQGTQVTVSS"
  assayValue: "low polyreactivity"
- constructSequence: "QVQLVESGAGLVQAGGSLRLSCASSGYIFDWYAMGWYRQAHGKERELGAAISGRGGSTYYADSVKGRFTISRDNSKNTVYLQMYSLKPEYTAVYYCNAALSPWGYNYWGQGTQVTVSS"
  assayValue: "high polyreactivity"
- constructSequence: "QVQLVESGGGLVQAGGSLRLSCAASGRIFGVYAMGWYRQAPGKERELVAAIDSSDGSTYYADSVKGRFTISRDNAKNTVYLQMNSLKPEDTAVYYCAADTPAAVYGYDYWGQGTQVTVSS"
  assayValue: "low polyreactivity"

====

# method: yeast display, Sf9 membrane polyspecificity reagent, FACS + sequencing; frameworks hold sequencing errors
outcomeMeasure: polyreactivity (PSR sort gate)

- constructSequence: "QVQLVESGGGLVQAGGSLRLSCAASGFIFDYYAMGWYRQAPGKERELVAGISNGDTTYYADSVKGRFTISRDNAKNTVYLQMNSLKPEDTAVYYCNAKPFYWVLGGYDYWGQGTQVTVSS"
  outcomeMeasure: "polyreactivity (PSR sort gate)"
  assayValue: "low polyreactivity"
- constructSequence: "QVQLVESGGALVQAGGSLRLSCAASGFIFYSWYAMGWYRQAPGKQRELVAAIRSGGSTYYADSVKGRFTISRDNAKNTVYLQMNSLKPEDTAVYYCAVKYSWSEYGYWGQGTQVTVSS"
  outcomeMeasure: "polyreactivity (PSR sort gate)"
  assayValue: "low polyreactivity"
